test system: MARK4; conditions: Compound Concentration (nM):1000;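 also: KINOMEscan scanMAX binding as percent activity remaining versus control; lower means stronger binding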
Cut-off 90% on Percent Control: below means Fulfilled, at or above means Not fulfilled.

Please let me know if Cl.O=C(O[C@H]1CN[C@H](C#Cc2cc3ncnc(Nc4ccc5c(cnn5Cc5ccccc5)c4)c3s2)C1)N1CCOCC1 [GSK200398A] shows Percent Control below 90%.
Not fulfilled

Would you kindly verify if Percent Control of CCn1c(-c2nonc2N)nc2c(C#CC(C)(C)O)nc(OCCNC)cc21.Cl [GSK949675] is strictly less than 90%?
Not fulfilled

Record NS(=O)(=O)c1ccc(N/N=C2\C(=O)Nc3ccc(C(=O)NCCc4c[nH]cn4)cc32)cc1 [GW300660X] : is its Percent Control strictly below 90%?
Not fulfilled

Lab note: confirm whether the reported Percent Control for this compound is below 90%, equality not counting. compound: CCS(=O)(=O)c1ccc(OC)c(Nc2ncc(-c3cccc(OC)c3)o2)c1 [GW580509X]
Not fulfilled

Could you please tell me whether Percent Control recorded for COc1cc(/C=N/Nc2ncnc3[nH]ncc23)ccc1O [GW578748X] is less than 90%?
Fulfilled

Strictly below 90% in Percent Control? NS(=O)(=O)c1ccc(N/N=C2\C(=O)Nc3ccc(Cl)cc32)cc1 [GW280670X]
Not fulfilled

Given the entry Cl.O=C(Nc1ccc(Oc2ccc3[nH]c(NC(=O)c4ccccc4)nc3c2)cc1)Nc1cc(C(F)(F)F)ccc1F [GW709042A] , would its reported Percent Control be below 90%?
Fulfilled

Is 90% strictly greater than the compound's reported Percent Control? compound: COc1cccc(-c2c[nH]c3c(N/N=C/c4ccncc4)ncnc23)c1 [GW814408X]
Not fulfilled

Lab log: compare recorded Percent Control with 90%; is it strictly lower for COc1ccc(COc2ccc(Cc3cnc(N)nc3N)cc2OC)cc1 [GW632580X] ?
Fulfilled

For this compound, is Percent Control lower than 90%? NS(=O)(=O)c1ccc(N/N=C2\C(=O)Nc3ccc(-c4cnco4)cc32)cc1 [GW276655]
Fulfilled

Say whether its Percent Control is strictly beneath 90%. Entry: COc1cc2ncnc(Nc3ccc4c(cnn4Cc4ccccc4)c3)c2cc1OC.Cl [GW282449A]
Not fulfilled

Is Percent Control strictly under 90% for the entry O=C(Nc1n[nH]c2nc(-c3ccc(O)cc3)c(Br)cc12)C1CC1 [SB-725317] ?
Not fulfilled

Bench note: check whether Nc1ncnc2occ(-c3ccc(NC(=O)Nc4cc(C(F)(F)F)ccc4F)cc3)c12 [GW770249X] shows Percent Control below 90%
Not fulfilled

Bench note: check whether CC(C)COC(=O)c1ccc2c(c1)/C(=C/Nc1ccc(S(N)(=O)=O)cc1)C(=O)N2 [GW416981X] shows Percent Control below 90%
Fulfilled

* * *

Give measured Percent Control for each item. Keep answers brief.
system: KIT(A829P); settings: Compound Concentration (nM):1000
// return the numeric value with its unit appended

State its Percent Control: COc1cc(C=NNc2ncnc3c2cnn3-c2ccccc2)ccc1O [GW513184X]
100%

Give reported Percent Control value for Cl.c1ccc(Cc2nc3ccc(Nc4ncnc5ccccc45)cc3[nH]2)cc1 [GR269666A]
100%

# return recorded Percent Control for input NS(=O)(=O)c1ccc(N/N=C2\C(=O)Nc3ccc(C(=O)NCc4ccncc4)cc32)cc1 [GW300657X]
47%

Consider the compound CC1=C(C(=O)Nc2ccc3[nH]ncc3c2)C(c2ccc3ccccc3c2)CC(=O)N1 (stereo not shown) [GSK270822A] . State its measured Percent Control.
55%
